B1: ZNF449 (parent)
chain: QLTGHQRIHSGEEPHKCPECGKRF

- Variants of: B1
- PROTOCOL: protein stability index of a GFP-peptide fusion (GPS, HEK-293T) (PSI 1-6); higher = more stable;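 also: lentivirally expressed fusions sorted by FACS into six bins by GFP to DsRed ratio, PSI derived from sequencing read proportions per bin multiplied by bin number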
- CONDITION_SUMMARY: c terminus: a fixed tail appended
Here, each record is paired with measured protein stability index data.
Number only, please.

{"columns": ["CHANGES", "protein stability index"],
 "data": [
  ["R7D", 4.85],
  ["R7N", 3.52],
  ["K22C", 4.2],
  ["Q1H", 3.69],
  ["P14G", 4.5]
]}

Can you look up the measured protein stability index of E12I for me?
3.63

Also need C17E , thanks.
4.89

And what about the variant G11W ?
3.76

Moving on to Q1M
2.5

Can you handle H15A next?
4.68

Try T3S next.
2.94

How about K22W ?
3.6

// next record C17K
5.14
